Origin of the recorded values: BindingDB's records for doi:10.1021/acs.jmedchem.6b00275

measured.on: Cytochrome P450 2C19 (Homo sapiens)
Sequence (P33261 whole entry, canonical isoform): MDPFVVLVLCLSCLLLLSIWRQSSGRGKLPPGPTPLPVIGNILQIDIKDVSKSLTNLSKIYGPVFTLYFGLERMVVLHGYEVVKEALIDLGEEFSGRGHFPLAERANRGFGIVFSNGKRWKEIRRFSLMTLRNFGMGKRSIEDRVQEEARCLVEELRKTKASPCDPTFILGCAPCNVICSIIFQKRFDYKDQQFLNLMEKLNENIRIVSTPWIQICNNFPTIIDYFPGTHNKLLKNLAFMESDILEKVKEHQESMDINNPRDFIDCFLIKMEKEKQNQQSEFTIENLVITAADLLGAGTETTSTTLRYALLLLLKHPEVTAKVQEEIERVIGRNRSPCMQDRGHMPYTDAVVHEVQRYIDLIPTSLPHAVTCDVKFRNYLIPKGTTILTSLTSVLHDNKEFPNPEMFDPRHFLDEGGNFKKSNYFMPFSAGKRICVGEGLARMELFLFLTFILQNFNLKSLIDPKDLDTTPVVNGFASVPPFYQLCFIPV
method.summary: Inhibition of CYP2C19 in human liver microsomes using isoform-specific probe substrates in presence of NADPH-generating system by LC-MS analysis
pIC50: −log10 of the molar value.
attribute.measured: pIC50

1. Cc1cc(NC2CCc3cc(Br)ccc3C2)n2nc(C(C)(F)F)nc2n1 (configuration not stated)    < 4.70
2. Cc1cc(N[C@H]2CCc3ccc(Br)cc3C2)n2nc(C(C)(F)F)nc2n1    < 4.70

----------
measured.on: Cytochrome P450 2B6 (Homo sapiens)
Sequence (P20813 whole entry, canonical isoform): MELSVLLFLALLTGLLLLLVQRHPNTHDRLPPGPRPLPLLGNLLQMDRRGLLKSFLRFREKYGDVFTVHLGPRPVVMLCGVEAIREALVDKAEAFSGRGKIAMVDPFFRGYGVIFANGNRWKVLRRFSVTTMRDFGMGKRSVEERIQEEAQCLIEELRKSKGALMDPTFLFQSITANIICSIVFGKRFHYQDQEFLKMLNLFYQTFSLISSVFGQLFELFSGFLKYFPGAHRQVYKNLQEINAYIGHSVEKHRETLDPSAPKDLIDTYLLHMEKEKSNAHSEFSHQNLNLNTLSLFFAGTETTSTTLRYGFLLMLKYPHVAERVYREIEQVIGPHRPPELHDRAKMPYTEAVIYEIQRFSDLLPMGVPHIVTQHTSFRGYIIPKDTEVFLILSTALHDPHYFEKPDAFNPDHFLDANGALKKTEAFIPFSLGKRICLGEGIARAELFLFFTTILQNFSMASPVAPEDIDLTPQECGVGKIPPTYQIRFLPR
method.summary: Inhibition of CYP2B6 in human liver microsomes using isoform-specific probe substrates in presence of NADPH-generating system by LC-MS analysis
pIC50: −log10 of the molar value.
attribute.measured: pIC50

1) Cc1cc(NC2CCc3cc(Br)ccc3C2)n2nc(C(C)(F)F)nc2n1 (stereo not drawn)    4.75
2) Cc1cc(NC2CCc3cc(Cl)ccc3C2)n2nc(C(C)(F)F)nc2n1 (stereo not drawn)    4.74
